Attribute: MIC
Test system: Klebsiella pneumoniae
Experiment: Antibacterial activity against ESBL positive Klebsiella pneumoniae 09-25 after 18 hrs by agar dilution assay
Assay type: functional
Conditions: 09-25, 18 h
State the answer as a number, implicitly in µg/mL.

Completed entries (count: 5):
| COMPOUND | NUMBER |
| --- | --- |
| CC1(C)[C@H](NC(=O)/C(=N\OCc2ccc(C(=O)O)cc2)c2csc(N)n2)C(=O)N1S(=O)(=O)O | 8 |
| CC1(C)[C@H](NC(=O)/C(=N\OCc2ccccn2)c2csc(N)n2)C(=O)N1S(=O)(=O)O | 32 |
| Cn1cc(CO/N=C(\C(=O)N[C@@H]2C(=O)N(S(=O)(=O)O)C2(C)C)c2csc(N)n2)nn1 | 8 |
| CC1(C)[C@H](NC(=O)/C(=N\OCc2cccnc2)c2csc(N)n2)C(=O)N1S(=O)(=O)O | 8 |
| CC1(C)[C@H](NC(=O)/C(=N\OCc2cn(CC3CC3)nn2)c2csc(N)n2)C(=O)N1S(=O)(=O)O | 32 |

stdin: Answer briefly: MIC recorded on Klebsiella pneumoniae for "CC1(C)[C@H](NC(=O)/C(=N\OCc2cn(CC(=O)O)nn2)c2csc(N)n2)C(=O)N1S(=O)(=O)O"
stdout: 32

stdin: Answer briefly: MIC recorded on Klebsiella pneumoniae for C[C@H]1[C@H](NC(=O)/C(=N\OC(C)(C)C(=O)O)c2csc(N)n2)C(=O)N1S(=O)(=O)O [AZTREONAM]
stdout: 32

###

Tested on: Klebsiella pneumoniae
Experiment: Antibacterial activity against NDM-1 positive Klebsiella pneumoniae BAA-2146 after 18 hrs by agar dilution assay
Format: functional
Settings: BAA-2146, 18 h
READOUT_KIND: MIC (µg/mL)
State the answer as a number, implicitly in µg/mL.

Completed entries (count: 5):
| MOLECULE | READOUT_KIND | RESULT_UNITS | NUMBER |
| --- | --- | --- | --- |
| CC1(C)[C@H](NC(=O)/C(=N\OCc2cn(CC3CC3)nn2)c2csc(N)n2)C(=O)N1S(=O)(=O)O | MIC | µg/mL | 64 |
| CC1(C)[C@H](NC(=O)/C(=N\OCc2cccnc2)c2csc(N)n2)C(=O)N1S(=O)(=O)O | MIC | µg/mL | 32 |
| C[C@H]1[C@H](NC(=O)/C(=N\OC(C)(C)C(=O)O)c2csc(N)n2)C(=O)N1S(=O)(=O)O [AZTREONAM] | MIC | µg/mL | 256 |
| CC1(C)[C@H](NC(=O)/C(=N\OCc2ccc(C(=O)O)cc2)c2csc(N)n2)C(=O)N1S(=O)(=O)O | MIC | µg/mL | 32 |
| Cn1cc(CO/N=C(\C(=O)N[C@@H]2C(=O)N(S(=O)(=O)O)C2(C)C)c2csc(N)n2)nn1 | MIC | µg/mL | 64 |

// moving on: another record for MIC
stdin: Return MIC (reported value) for this molecule: "CC1(C)[C@H](NC(=O)/C(=N\OCc2ccccn2)c2csc(N)n2)C(=O)N1S(=O)(=O)O"
stdout: 16

###

Test system: Pseudomonas aeruginosa
Experiment: Antibacterial activity against BL positive Pseudomonas aeruginosa PAO1 after 18 hrs by agar dilution assay
Type: functional
Settings: PAO1, 18 h
Doc: threshold 20 µg/mL (exclusive). Items with MIC beneath it return T; others return F.

Before answering, review these 6 worked examples.
| MOLECULE | DISCRETE_LABEL |
| --- | --- |
| CCN(CC)CC.C[C@H]1[C@H](NC(=O)/C(=N\OCc2ccc(C(=O)N/N=C/c3ccc(O)cc3O)cc2)c2csc(N)n2)C(=O)N1S(=O)(=O)O (relative stereo) | T |
| CCN(CC)CC.C[C@H]1[C@H](NC(=O)/C(=N\OCc2ccc(C(=O)N/N=C/c3ncc[nH]3)cc2)c2csc(N)n2)C(=O)N1S(=O)(=O)O | F |
| CC1(C)[C@H](NC(=O)/C(=N\OCc2cn(CC(=O)O)nn2)c2csc(N)n2)C(=O)N1S(=O)(=O)O | F |
| C[C@H]1[C@H](NC(=O)/C(=N\OC(C)(C)C(=O)O)c2csc(N)n2)C(=O)N1S(=O)(=O)O | T |
| CC1(C)[C@H](NC(=O)/C(=N\OCc2cccnc2)c2csc(N)n2)C(=O)N1S(=O)(=O)O | F |
| CC1(C)[C@H](NC(=O)/C(=N\OCc2cn(CC3CC3)nn2)c2csc(N)n2)C(=O)N1S(=O)(=O)O | F |

Moving on to the next molecule.
stdin: Given CCN(CC)CC.C[C@H]1[C@H](NC(=O)/C(=N\OCc2ccc(C(=O)N/N=C/c3ccccc3O)cc2)c2csc(N)n2)C(=O)N1S(=O)(=O)O (relative stereo) , is recorded MIC strictly lower than 20 µg/mL?
stdout: T

###

Test system: Pseudomonas aeruginosa
Experiment: Antibacterial activity against BL positive Pseudomonas aeruginosa 27853 after 18 hrs by agar dilution assay
Assay type: functional
Conditions: Pseudomonas aeruginosa, 27853, 18 h
READOUT_KIND: MIC (µg/mL)
State the answer as a number, implicitly in µg/mL.

Completed entries (count: 4):
| MOLECULE | RESULT_UNITS | MIC |
| --- | --- | --- |
| C[C@H]1[C@H](NC(=O)/C(=N\OC(C)(C)C(=O)O)c2csc(N)n2)C(=O)N1S(=O)(=O)O | µg/mL | 2 |
| CCN(CC)CC.C[C@H]1[C@H](NC(=O)/C(=N\OCc2ccc(C(=O)N/N=C/c3ccc(O)cc3O)cc2)c2csc(N)n2)C(=O)N1S(=O)(=O)O (relative stereo) | µg/mL | 16 |
| CCN(CC)CC.C[C@H]1[C@H](NC(=O)/C(=N\OCc2ccc(C(=O)N/N=C/c3ccc4ccccc4c3O)cc2)c2csc(N)n2)C(=O)N1S(=O)(=O)O | µg/mL | 16 |
| CCN(CC)CC.C[C@H]1[C@H](NC(=O)/C(=N\OCc2ccc(C(=O)N/N=C/c3ncc[nH]3)cc2)c2csc(N)n2)C(=O)N1S(=O)(=O)O | µg/mL | 32 |

stdin: Return MIC (reported value) for this molecule: CCN(CC)CC.Cc1ccc(O)c(/C=N/NC(=O)c2ccc(CO/N=C(\C(=O)N[C@@H]3C(=O)N(S(=O)(=O)O)[C@H]3C)c3csc(N)n3)cc2)c1 (relative stereo)
stdout: 32

###

Attribute: MIC
System: Pseudomonas aeruginosa
Assay: Antibacterial activity against BL positive Pseudomonas aeruginosa 27853 after 18 hrs by agar dilution assay
Type: functional
Details: Pseudomonas aeruginosa, 27853, 18 h
State the answer as a number, implicitly in µg/mL.

Completed entries (count: 2):
| COMPOUND | READOUT_KIND | NUMBER |
| --- | --- | --- |
| CC1(C)[C@H](NC(=O)/C(=N\OCc2ccccn2)c2csc(N)n2)C(=O)N1S(=O)(=O)O | MIC | 64 |
| CCN(CC)CC.C[C@H]1[C@H](NC(=O)/C(=N\OCc2ccc(C(=O)N/N=C/c3ccccc3O)cc2)c2csc(N)n2)C(=O)N1S(=O)(=O)O (relative stereo) | MIC | 8 |

stdin: Return MIC (reported value) for this compound: CCN(CC)CC.C[C@H]1[C@H](NC(=O)/C(=N\OCc2ccc(C(=O)N/N=C/c3cccs3)cc2)c2csc(N)n2)C(=O)N1S(=O)(=O)O (relative stereo)
stdout: 64

###

Attribute: MIC
Tested on: Klebsiella pneumoniae
Test: Antibacterial activity against ESBL negative Klebsiella pneumoniae 7 after 18 hrs by agar dilution assay
Type: functional
Conditions: Klebsiella pneumoniae, 7, 18 h
State the answer as a number, implicitly in µg/mL.

| MOLECULE | MIC (µg/mL) |
| --- | --- |
| CC1(C)[C@H](NC(=O)/C(=N\OCc2ccc(C(=O)O)cc2)c2csc(N)n2)C(=O)N1S(=O)(=O)O | 2 |
| CC1(C)[C@H](NC(=O)/C(=N\OCc2cn(CC3CC3)nn2)c2csc(N)n2)C(=O)N1S(=O)(=O)O | 16 |
| CCN(CC)CC.C[C@H]1[C@H](NC(=O)/C(=N\OCc2ccc(C(=O)N/N=C/c3ncc[nH]3)cc2)c2csc(N)n2)C(=O)N1S(=O)(=O)O | 8 |
| CCN(CC)CC.C[C@H]1[C@H](NC(=O)/C(=N\OCc2ccc(C(=O)N/N=C/c3cccs3)cc2)c2csc(N)n2)C(=O)N1S(=O)(=O)O (relative stereo) | 2 |
| CCN(CC)CC.C[C@H]1[C@H](NC(=O)/C(=N\OCc2ccc(C(=O)N/N=C/c3ccc(O)cc3O)cc2)c2csc(N)n2)C(=O)N1S(=O)(=O)O (relative stereo) | 2 |
| C[C@H]1[C@H](NC(=O)/C(=N\OCc2cn(C)nn2)c2csc(N)n2)C(=O)N1S(=O)(=O)O (relative stereo) | 1 |

stdin: Return MIC (reported value) for this molecule: CCN(CC)CC.C[C@H]1[C@H](NC(=O)/C(=N\OCc2ccc(C(=O)N/N=C/c3ccccc3O)cc2)c2csc(N)n2)C(=O)N1S(=O)(=O)O (relative stereo)
stdout: 2

stdin: Return MIC (reported value) for this molecule: "CC1(C)[C@H](NC(=O)/C(=N\OCc2cccnc2)c2csc(N)n2)C(=O)N1S(=O)(=O)O"
stdout: 4
